Give inhibition at 1 µM for every item shown.
- System name: NaV1.7 (Homo sapiens)
- Construct: expressed in transfected cells; tetracycline-inducible, kept under hygromycin and blasticidin selection
- Sequence (Q15858 whole entry): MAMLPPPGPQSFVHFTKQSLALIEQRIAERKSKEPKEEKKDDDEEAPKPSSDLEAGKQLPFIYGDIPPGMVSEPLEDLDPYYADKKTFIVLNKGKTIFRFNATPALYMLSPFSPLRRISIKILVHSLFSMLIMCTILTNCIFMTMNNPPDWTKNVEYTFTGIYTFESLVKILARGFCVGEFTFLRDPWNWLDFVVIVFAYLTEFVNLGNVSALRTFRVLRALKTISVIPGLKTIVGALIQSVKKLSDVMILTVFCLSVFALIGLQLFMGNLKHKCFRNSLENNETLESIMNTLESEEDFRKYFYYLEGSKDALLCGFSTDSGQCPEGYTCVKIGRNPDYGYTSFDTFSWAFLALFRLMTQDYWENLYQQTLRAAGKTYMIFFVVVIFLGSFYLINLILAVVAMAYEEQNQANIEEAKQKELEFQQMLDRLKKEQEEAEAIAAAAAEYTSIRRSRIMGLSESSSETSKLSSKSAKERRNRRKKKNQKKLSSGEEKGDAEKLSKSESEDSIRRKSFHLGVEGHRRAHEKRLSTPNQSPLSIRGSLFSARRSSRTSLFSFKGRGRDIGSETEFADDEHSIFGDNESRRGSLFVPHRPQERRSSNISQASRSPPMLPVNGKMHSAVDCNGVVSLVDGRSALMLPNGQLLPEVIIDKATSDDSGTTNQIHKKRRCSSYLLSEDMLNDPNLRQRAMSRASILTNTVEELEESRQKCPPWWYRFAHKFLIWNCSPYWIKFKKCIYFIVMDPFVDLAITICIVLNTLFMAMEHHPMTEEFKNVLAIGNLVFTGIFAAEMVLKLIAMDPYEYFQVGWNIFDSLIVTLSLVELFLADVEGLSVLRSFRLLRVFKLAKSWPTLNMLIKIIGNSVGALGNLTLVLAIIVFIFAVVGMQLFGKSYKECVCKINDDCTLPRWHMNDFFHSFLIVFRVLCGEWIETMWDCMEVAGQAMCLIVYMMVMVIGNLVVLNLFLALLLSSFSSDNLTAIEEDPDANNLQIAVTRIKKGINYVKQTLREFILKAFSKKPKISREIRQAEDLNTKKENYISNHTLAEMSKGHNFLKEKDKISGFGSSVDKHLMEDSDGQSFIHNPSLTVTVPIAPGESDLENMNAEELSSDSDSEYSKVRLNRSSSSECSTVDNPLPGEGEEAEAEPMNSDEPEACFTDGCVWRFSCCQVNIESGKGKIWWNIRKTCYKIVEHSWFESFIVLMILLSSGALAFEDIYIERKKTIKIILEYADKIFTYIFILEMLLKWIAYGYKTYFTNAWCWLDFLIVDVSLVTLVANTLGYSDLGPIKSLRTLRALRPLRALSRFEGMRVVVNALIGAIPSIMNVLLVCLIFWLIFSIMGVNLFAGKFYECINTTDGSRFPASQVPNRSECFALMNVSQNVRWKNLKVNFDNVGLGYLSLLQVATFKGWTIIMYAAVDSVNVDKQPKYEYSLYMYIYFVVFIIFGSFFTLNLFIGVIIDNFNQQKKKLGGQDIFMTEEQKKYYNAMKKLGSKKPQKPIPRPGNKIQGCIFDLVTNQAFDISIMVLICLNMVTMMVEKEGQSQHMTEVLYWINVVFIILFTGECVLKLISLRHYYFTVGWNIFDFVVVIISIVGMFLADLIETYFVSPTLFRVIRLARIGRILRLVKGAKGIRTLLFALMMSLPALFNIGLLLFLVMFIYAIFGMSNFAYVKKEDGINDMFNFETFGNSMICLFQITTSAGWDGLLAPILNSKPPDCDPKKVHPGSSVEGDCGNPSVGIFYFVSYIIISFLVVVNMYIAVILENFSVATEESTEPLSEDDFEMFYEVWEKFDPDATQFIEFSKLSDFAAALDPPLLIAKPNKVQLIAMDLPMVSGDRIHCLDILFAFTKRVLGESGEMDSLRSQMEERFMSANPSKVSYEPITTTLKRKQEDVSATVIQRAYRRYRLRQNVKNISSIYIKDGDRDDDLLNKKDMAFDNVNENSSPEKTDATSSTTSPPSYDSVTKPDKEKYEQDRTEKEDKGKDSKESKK
- Measurement protocol: Intracellular (internal block) inhibition of NaV1.7 current, whole cell patch clamp
- Type: cell-based
- Settings: % inhibition at 1 μM, compound in internal solution; read-out: Nav 1.7 Intracellular Inhibition

Entry under test: CCOC(=O)c1scc(C)c1NC(=O)C[N+]1(Cc2ccccc2)CCCCCC1.[Br-] . Its inhibition at 1 µM was > 90%

Record COC(=O)c1scc(C)c1NC(=O)C[N+]1(Cc2ccccc2)CCCCC1.[Br-] , field inhibition at 1 µM: 40 to 70%

Looking up Cc1csc(C(=O)OC(C)C)c1NC(=O)C[N+]1(Cc2ccccc2)CCCCCC1.[Br-] , I found its inhibition at 1 µM recorded as 70 to 90%

// inhibition at 1 µM lookup, molecule = CC[N+]1(CC(=O)Nc2c(C)csc2C(=O)OC)CCCC(c2ccccc2)C1.[I-] (stereo not drawn) , result: 70 to 90%

Per the records, this molecule ( COC(=O)c1scc(C)c1NC(=O)C[N+]1(Cc2ccccc2)CCCCCC1.[Br-] ) has inhibition at 1 µM equal to 70 to 90%

The recorded inhibition at 1 µM for CCCOC(=O)c1scc(C)c1NC(=O)C[N+]1(Cc2ccccc2)CCCCCC1.[Br-] is > 90%

Per the records, this molecule ( CCC(C(=O)Nc1c(C)csc1C(=O)OC)[N+]1(Cc2ccccc2)CCCCC1.[Br-] (stereo not drawn) ) has inhibition at 1 µM equal to 40 to 70%

Field inhibition at 1 µM (entry COC(=O)c1scc(C)c1NC(=O)C[N+]1(Cc2ccccc2)CCCC1.[Br-] ) reads 40 to 70%

For reference, reported inhibition at 1 µM for Cc1csc(C)c1NC(=O)C[N+]1(Cc2ccccc2)CCCCCC1.[Br-] stands at 40 to 70%

Values from patent US20240277727A1
